# studyTarget: T1, HLA-B*44:05 (human)
# T1 construct: also called peptide-receptive MHC class I molecule
# protocolNotes: UV peptide exchange, anti-b2m ELISA
Readings of peptide exchange yield for the listed binders
observable: peptide exchange yield

>>> testresult("SESLPRAPL")
"50 to 75%"
>>> testresult("TELEPGLTY")
"50 to 75%"
>>> testresult("SVISDSPRSW")
"50 to 75%"
>>> testresult("KEVDPASNTYTL")
"20 to 50%"
>>> testresult("AEANPRDLGASW")
"50 to 75%"
>>> testresult("VEEEISRHY")
"20 to 50%"
>>> testresult("EDNPSGHTY")
"20 to 50%"
>>> testresult("AETENRYCV")
"50 to 75%"
